Test system: HEK-293T
measurement-notes: Multiplex assay against HEK293T
Format: toxicity, cell-based
measurement-conditions: human, 12 h, 1 µM, compound concentration 1 uM, replicate 2

chemical-string | units-label | Population Fragmented Nuclei (%)
Cc1ccc2nc(NCCN)c3ncc(C)n3c2c1.O=C(O)C(F)(F)F.O=C(O)C(F)(F)F | % | 10
COc1cc(N2CCN(C)CC2)ccc1Nc1ncc2c(n1)N(C)c1ccccc1C(=O)N2C | % | 3
COC(=N)c1nc2ccc3ncnc(Nc4ccc(OC)cc4F)c3c2s1 | % | 4
Cl.O=c1c2cccn2c2ccccc2n1CCCN1CCC(c2ccc(Cl)cc2)CC1 | % | 5
CCn1c(=O)c(-c2ccc(-c3cncs3)cc2Cl)cc2cnc(Nc3ccc(N4CCN(C)CC4)cc3)nc21 | % | 5

* * *

System: Fibroblast
measurement-notes: Multiplex assay against human fibroblast
Type: toxicity, cell-based
measurement-conditions: 24 h, 10 µM, compound concentration 10 uM, replicate 2
Decide using Population Tubulin-Different-Phenotype (%): a value greater than or equal to 20% is class 1, a smaller one is class 0.

compound | assigned-category
CCN1CCN(Cc2ccc(Nc3ncc(F)c(-c4cc(F)c5nc(C)n(C(C)C)c5c4)n3)nc2)CC1.CS(=O)(=O)O | class 1
COc1cccc2cc(-c3nc([C@H]4CC[C@H](C(=O)O)CC4)n4ncnc(N)c34)[nH]c12 [OSI-027] | class 0
CN1CCN(C(=O)C(C)(C)c2ccc(C(=O)Nc3cn4cc(-c5cc(C(C)(C)C)cc(C(C)(C)C)c5)ccc4n3)cc2)CC1 [T3-CLK-N] | class 1
C=CCn1c(=O)c2cnc(Nc3ccc(N4CCN(C)CC4)cc3)nc2n1-c1cccc(C(C)(C)O)n1 [ADAVOSERTIB] | class 1
CN1CCC(=C2c3ccccc3CC(=O)c3sccc32)CC1.O=C(O)/C=C/C(=O)O [KETOTIFEN FUMARATE] | class 1
O=C(Nc1ccc(Cl)cc1)Nc1cccc(-c2cccc(N3CCCC3)n2)c1 | class 1
Cl.Oc1ccc2c3c1O[C@H]1c4[nH]c5c(c4C[C@@]4(O)[C@@H](C2)N(CC2CC2)CC[C@]314)C[C@@]1(O)[C@H]2Cc3ccc(O)c4c3[C@@]1(CCN2CC1CC1)[C@H]5O4 | class 1
COc1ccc(S(=O)(=O)N(CCO)c2ccccc2CN(C)C/C=C/c2ccc(Cl)cc2)cc1.O=P(O)(O)O | class 1
CCOc1cc2ncc(C#N)c(Nc3ccc(OCc4ccccn4)c(Cl)c3)c2cc1NC(=O)/C=C/CN(C)C [NERATINIB] | class 1
Cn1nc(C(F)(F)F)cc1-c1cnc(N2CCc3cc(S(=O)(=O)Nc4c(F)cc(Cl)cc4F)cc(N4CCCC4=O)c32)nc1 [TP-020] | class 1
O=C1NC(=O)C(c2cnc3ccccn23)=C1c1cn2c3c(cc(F)cc13)CN(C(=O)N1CCCCC1)CC2 [LY-2090314] | class 1
O=C(Cc1ccc(-c2ccc(OCCN3CCOCC3)cc2)cn1)NCc1ccccc1 [TIRBANIBULIN] | class 0
CCc1cccc(CC)c1NC(=O)c1nn(C)c2c1CCc1cnc(Nc3ccc(N4CCN(C)CC4)cc3OC)nc1-2 | class 0
O=C(Nc1ccc(-n2nc(-c3cccnc3)cc2C(F)(F)F)cn1)c1ccc(-c2ccccc2)c(F)c1 [BI 2049] | class 0
C=C1/C(=C\C=C2/CCC[C@]3(C)[C@@H]([C@H](C)/C=C/[C@H](C)C(C)C)CC[C@@H]23)C[C@@H](O)C[C@@H]1O [DOXERCALCIFEROL] | class 0
Cc1ccc(C(=O)Nc2cccc(C(F)(F)F)c2)cc1Nc1nc(-c2cccnc2)nc2c1cnn2C | class 1
COc1cc2ncnc(Nc3ccc(F)c(Cl)c3)c2cc1NC(=O)/C=C/CN1CCCCC1 [DACOMITINIB ANHYDROUS] | class 0
CCCn1c(=O)c2[nH]c(-c3cnn(Cc4cccc(C(F)(F)F)c4)c3)nc2n(CC)c1=O [GS 6201] | class 0
CCCS(=O)(=O)Nc1ccc(F)c(C(=O)c2c[nH]c3ncc(Cl)cc23)c1F [PLX-4720] | class 0
CNc1cc(Oc2cc(C(=O)Nc3cc(N4CCN(C)CC4)cc(C(F)(F)F)c3)ccc2C)ncn1 | class 1
CCc1cccc(CC)c1NC(=O)c1nn(C)c2c1CCc1cnc(Nc3ccc(C(=O)NC4CCN(C)CC4)cc3OC(F)(F)F)nc1-2 | class 1
CNC(=O)c1ccc(Nc2nc(OC3CCCC3)c3c(-c4ccc5nc(C)oc5c4)c[nH]c3n2)c(OC)c1 | class 1
Cl.O=c1c2cccn2c2ccccc2n1CCCN1CCC(c2ccc(Cl)cc2)CC1 | class 1
COc1ccc(-c2ccc3c(N4CCOCC4)nc(N4C[C@@H](C)O[C@@H](C)C4)nc3n2)cc1CO [Ku-0063794] | class 1
O=C(Nc1ccc(-c2ccnc(Nc3ccc(N4CCOCC4)cc3)n2)cc1)[C@@H]1CCCN1 | class 1
Cc1cn(-c2cc(NC(=O)c3ccc(C)c(Nc4nccc(-c5cccnc5)n4)c3)cc(C(F)(F)F)c2)cn1 [NILOTINIB] | class 1
Cc1ccc2nc(NCCN)c3ncc(C)n3c2c1.O=C(O)C(F)(F)F.O=C(O)C(F)(F)F | class 1
Cc1cc(C)c(S(=O)(=O)N(Cc2ccc(-c3cccc(S(C)(=O)=O)c3)cc2)Cc2ccc(C(F)(F)F)o2)c(C)c1 | class 0
NC(=O)c1cccc(-c2cc(Nc3ccc(OC(F)(F)F)cc3)ncn2)c1 | class 1
CCn1cc(-c2ccnc3[nH]c(-c4cccc(CN(C)C)c4)cc23)c(-c2ccc(NC(=O)N(C)C)cc2)n1 [GSK-1070916] | class 1
S=C(NCCCc1c[nH]cn1)NCCCN(Cc1ccc(Cl)c(Cl)c1)c1ccc(Br)cn1 | class 1

* * *

Parameter: Growth Rate. Scope: all listed entries.
System: HEK-293T
measurement-notes: Incucyte cell viability with HEK293T; note: filed as whole numbers so only -1 and 0 and 1 occur
Format: toxicity, cell-based
measurement-conditions: human, 0 h, 10 µM, compound concentration 10 uM, replicate number 2, timepoint 0 hours
observed-property: Growth Rate

molecule | assay-result
CCCCCCCCCCCCCCCCOC[C@H](COP(=O)([O-])OCC[N+](C)(C)C)OC(C)=O | 0
CN1CCN(C(=O)C(C)(C)c2ccc(C(=O)Nc3cn4cc(-c5ccncc5)ccc4n3)cc2)CC1 | 1
CN(C)[C@H]1CCN(c2cc(-c3ccccc3)nc3ccnn23)C1 [(S)-ZINC-3573] | 0
CCC[C@H](Oc1cc(C)c(-n2cc(C(F)(F)F)cn2)c(C)c1)c1ccc(C(=O)NCCC(=O)O)cc1 | 0
O=C1NCN(c2ccccc2)C12CCN(CC1COc3ccccc3O1)CC2 (stereo not given) | 0

* * *

System: HEK-293T
measurement-notes: Multiplex assay against HEK293T
Type: toxicity, cell-based
measurement-conditions: human, 12 h, 1 µM, compound concentration 1 uM, replicate 2
Consider the reported Population Mitochondria Different-Phenotype (%) of an entry and match it to a band in low bin: < 10%; mid bin: ≥ 10% and < 40%; high bin: ≥ 40%

molecule | assigned-category
O=C(Nc1ccc(Cl)cc1)Nc1cccc(-c2cccc(N3CCCC3)n2)c1 | low bin
CCOc1cc(C(=O)N2CCC(N3CCN(C)CC3)CC2)ccc1Nc1ncc2c(n1)N(C1CCCC1)c1ccccc1C(=O)N2C | high bin
CCN1CCN(Cc2ccc(Nc3ncc(F)c(-c4cc(F)c5nc(C)n(C(C)C)c5c4)n3)nc2)CC1.CS(=O)(=O)O | high bin
CN1CCC(=C2c3ccccc3CC(=O)c3sccc32)CC1.O=C(O)/C=C/C(=O)O [KETOTIFEN FUMARATE] | mid bin
CCn1cc(-c2ccnc3[nH]c(-c4cccc(CN(C)C)c4)cc23)c(-c2ccc(NC(=O)N(C)C)cc2)n1 [GSK-1070916] | mid bin
COc1cc2ncnc(Nc3ccc(F)c(Cl)c3)c2cc1NC(=O)/C=C/CN1CCCCC1 [DACOMITINIB ANHYDROUS] | mid bin
CCCS(=O)(=O)c1nc(NC2CC2)cc(-c2ccc3c(ccn3C3CC(C)(C)NC(C)(C)C3)c2)n1 | high bin
CN1CCN(C(=O)C(C)(C)c2ccc(C(=O)Nc3cn4cc(-c5cc(C(C)(C)C)cc(C(C)(C)C)c5)ccc4n3)cc2)CC1 [T3-CLK-N] | mid bin
Cc1ccc2nc(NCCN)c3ncc(C)n3c2c1.O=C(O)C(F)(F)F.O=C(O)C(F)(F)F | low bin
O=C1NC(=O)C(c2cnc3ccccn23)=C1c1cn2c3c(cc(F)cc13)CN(C(=O)N1CCCCC1)CC2 [LY-2090314] | high bin
COc1ccc(S(=O)(=O)N(CCO)c2ccccc2CN(C)C/C=C/c2ccc(Cl)cc2)cc1.O=P(O)(O)O | high bin
O=C(Nc1ccc(-n2nc(-c3cccnc3)cc2C(F)(F)F)cn1)c1ccc(-c2ccccc2)c(F)c1 [BI 2049] | low bin
Cl.O=C(c1ccc(Nc2nccc(-c3cc4ccccc4s3)n2)cc1)N1CCC(N2CCCC2)CC1 | mid bin
COC(=N)c1nc2ccc3ncnc(Nc4ccc(OC)cc4F)c3c2s1 | mid bin
CCN1CCN(c2ccc(Nc3cc(N(C)C(=O)Nc4c(Cl)c(OC)cc(OC)c4Cl)ncn3)cc2)CC1 [INFIGRATINIB] | mid bin
